Collected MFI at 4 nM values appear next to each entry.
molecular target: human delta-like ligand 3 (DLL3) on SHP77 cells (human) (UniProt Q9NYJ7); assay: FACS on SHP77 cells
Sequence (Q9NYJ7 27-618, stated change not applied): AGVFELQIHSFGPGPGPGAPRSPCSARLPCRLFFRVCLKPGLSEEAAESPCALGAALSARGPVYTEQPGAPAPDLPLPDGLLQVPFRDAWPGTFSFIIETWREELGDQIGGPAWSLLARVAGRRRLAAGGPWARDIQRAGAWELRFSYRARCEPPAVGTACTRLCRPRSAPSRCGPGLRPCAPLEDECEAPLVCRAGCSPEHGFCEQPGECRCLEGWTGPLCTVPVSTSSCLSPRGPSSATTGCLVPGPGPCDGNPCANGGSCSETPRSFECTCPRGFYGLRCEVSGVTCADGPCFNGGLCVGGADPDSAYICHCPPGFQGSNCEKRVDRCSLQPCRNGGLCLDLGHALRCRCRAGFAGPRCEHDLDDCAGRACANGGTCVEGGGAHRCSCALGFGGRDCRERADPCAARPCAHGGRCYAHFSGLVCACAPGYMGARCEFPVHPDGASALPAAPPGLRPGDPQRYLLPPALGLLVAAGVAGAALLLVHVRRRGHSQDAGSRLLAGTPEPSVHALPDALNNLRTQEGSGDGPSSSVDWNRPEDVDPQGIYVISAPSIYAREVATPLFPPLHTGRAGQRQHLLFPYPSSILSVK
Write down the numeric answer in MFI and omit the unit.

See these solved cases before continuing.
- Binder: "Hab006VL4VH2-hFc (scFv, part only; not given: scFv linker and human IgG1 Fc, V domains shown, not shown: another chain or arm of the molecule; a dimerising Fc or GST; small tags and cut ends) VL: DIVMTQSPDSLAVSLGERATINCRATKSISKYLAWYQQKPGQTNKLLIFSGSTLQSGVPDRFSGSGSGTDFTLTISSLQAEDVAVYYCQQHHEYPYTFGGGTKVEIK VH: EVQLVQSGAEVKKPGASVKVSCKASGYTFTSYWMHWVRQAPGQRLEWMGVIDPSDSLANYNQEFKGRVTLTVDTSASTAYMELSSLRSEDTAVYYCARDSTVVAPMDYWGQGTTVTVSS"
  MFI at 4 nM (MFI): 1500
- Binder: "Hab014VL2VH1-hFc (scFv, part only; not given: scFv linker and human IgG1 Fc, V domains shown, not shown: another chain or arm of the molecule; a dimerising Fc or GST; small tags and cut ends) VL: DIQMTQSPSSLSASVGDRVTITCKASEDIYNRLAWYQQKPGKVPKLLISGATSLETGVPSRFSGSGSGKDFTLTISSLQPEDVATYYCQQYWSLPWTFGGGTKVEIK VH: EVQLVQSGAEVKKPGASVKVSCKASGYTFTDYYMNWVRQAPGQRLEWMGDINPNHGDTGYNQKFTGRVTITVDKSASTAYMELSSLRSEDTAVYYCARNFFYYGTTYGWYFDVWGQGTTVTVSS"
  MFI at 4 nM (MFI): 610

Query (binder): Hab009VL3aVH1-hFc (Fc fusion, part only; not given: Linker and human IgG1 Fc, not shown: a dimerising Fc or GST) scFv, part: DIVMTQSPLSLPVTPGEPASISCRASQTISDYLHWYLQKSHQSPQLLIKYASQSISGVPDRFSGSGSGTDFTLKISRVEAEDVGVYYCQQGHSFPLTFGQGTKLEIKEVQLVQSGAEVKKPGASVKVSCKASGYTFTSYWMHWVRQAPGQRLEWMGTIYPGNSDTRYNQKFKDRVTITADTSASTAYMELSSLRSEDTAVYYCTRSYDYGDLDYWGQGTTVTVSS ; field requested: MFI at 4 nM
769
